Target: huPA-H99Y V41A (Homo sapiens, UniProt P00749, H272Y/V208A)
Construct: To ensure that the uPAs purified from the conditioned media were completely in the two-chain form, they were treated with plasmin; hexa-His (C); made in house; host or cells: HEK293 6E suspension cells
Assay: Ki for inhibition of huPA-H99Y-V41A, chromogenic substrate
Assay type: biochemical
Conditions: 37°C; means ± S.D.; read-out: K i for inhibition of huPA-H99Y-V41A
Bridge positions count the residues as written; N and C are the ends. Square brackets hold non-standard residues; d marks the D form. Peptide text beside a SMILES is read from it. Phe(4-guanidino) = N=C(N)Nc1ccc(C[C@H](N)C(=O)O)cc1
MEASURED_ATTRIBUTE: Ki (µM)
Note: unit µM is implicit; provide only the numeric part.

Prompt line: Consider the compound CC(=O)N[C@H]1CSSC[C@@H](C(N)=O)NC(=O)[C@H](CC(=O)O)NC(=O)[C@H](CC(C)C)NC(=O)[C@H](Cc2ccc(O)cc2)NC(=O)[C@H](Cc2ccc(NC(=N)N)cc2)NC(=O)[C@H](CO)NC(=O)[C@H](Cc2ccc(O)cc2)NC(=O)[C@H](C)NC(=O)[C@@H]2CCCN2C1=O [Mupain-1-12, CPAYS[4-guanidino-phenyl-alanine]YLDC] (Ac-CPAYS[Phe(4-guanidino)]YLDC-NH2; disulfide 1-10) and give its recorded Ki.
Response line: 1.6

====

Target: huPA-H99Y (Homo sapiens, UniProt P00749, H272Y)
Construct: To ensure that the uPAs purified from the conditioned media were completely in the two-chain form, they were treated with plasmin; hexa-His (C); made in house; host or cells: HEK293 6E suspension cells
Experiment: Ki for inhibition of huPA-H99Y, chromogenic substrate S-2444
Type: biochemical
Conditions: 37°C; means ± S.D.; read-out: K i for inhibition of huPA-H99Y
MEASURED_ATTRIBUTE: pKi
Lab note: report pKi as minus log10 of the concentration in molar units, number only.

Prompt line: Consider the sequence CPAYSRYLDC [Mupain-1 L8A] and give its recorded pKi.
Response line: 4.72

====

pKi: recorded values
Biological target: huPA-H99Y V41A (Homo sapiens, UniProt P00749, H272Y/V208A)
Construct: To ensure that the uPAs purified from the conditioned media were completely in the two-chain form, they were treated with plasmin; hexa-His (C); made in house; host or cells: HEK293 6E suspension cells
Test: Ki for inhibition of huPA-H99Y-V41A, chromogenic substrate
Assay type: biochemical
Details: 37°C; means ± S.D.; read-out: K i for inhibition of huPA-H99Y-V41A
Bridge positions count the residues as written; N and C are the ends. Square brackets hold non-standard residues; d marks the D form. Peptide text beside a SMILES is read from it. Ala(1-amidino-4-piperidyl) = N=C(N)N1CCC(C[C@H](N)C(=O)O)CC1; Phe(4-guanidino) = N=C(N)Nc1ccc(C[C@H](N)C(=O)O)cc1
Lab note: report pKi as minus log10 of the concentration in molar units, number only.

A selection of reference data follows.
{"MOLECULE": "CC(=O)N[C@H]1CSSC[C@@H](C(N)=O)NC(=O)[C@H](CC(=O)O)NC(=O)[C@H](CC(C)C)NC(=O)[C@H](Cc2ccc(O)cc2)NC(=O)[C@H](CC2CCN(C(=N)N)CC2)NC(=O)[C@H](CO)NC(=O)[C@H](Cc2ccc(O)cc2)NC(=O)[C@H](C)NC(=O)[C@@H]2CCCN2C1=O [Mupain-1-16] (Ac-CPAYS[Ala(1-amidino-4-piperidyl)]YLDC-NH2; disulfide 1-10)", "ASSAY_TARGET": "huPA-H99Y V41A (Homo sapiens, UniProt P00749, H272Y/V208A)", "pKi": 5.71}
{"MOLECULE": "CC(=O)N[C@H]1CSSC[C@@H](C(N)=O)NC(=O)[C@H](C)NC(=O)[C@H](CC(C)C)NC(=O)[C@H](Cc2ccc(O)cc2)NC(=O)[C@H](CCCNC(=N)N)NC(=O)[C@H](CO)NC(=O)[C@H](Cc2ccc(O)cc2)NC(=O)[C@H](C)NC(=O)[C@@H]2CCCN2C1=O [Mupain-1 D9A, CPAYSRYLAC] (Ac-CPAYSRYLAC-NH2; disulfide 1-10)", "ASSAY_TARGET": "huPA-H99Y V41A (Homo sapiens, UniProt P00749, H272Y/V208A)", "pKi": 5.14}
{"MOLECULE": "CC(=O)N[C@H]1CSSC[C@@H](C(N)=O)NC(=O)[C@H](C)NC(=O)[C@H](CC(C)C)NC(=O)[C@H](Cc2ccc(O)cc2)NC(=O)[C@H](CC2CCN(C(=N)N)CC2)NC(=O)[C@H](CO)NC(=O)[C@H](Cc2ccc(O)cc2)NC(=O)[C@H](C)NC(=O)[C@@H]2CCCN2C1=O [Mupain-1-16 D9A] (Ac-CPAYS[Ala(1-amidino-4-piperidyl)]YLAC-NH2; disulfide 1-10)", "ASSAY_TARGET": "huPA-H99Y V41A (Homo sapiens, UniProt P00749, H272Y/V208A)", "pKi": 6.32}

Now for the molecule whose pKi we want.
Prompt line: Answer with pKi of CC(=O)N[C@H]1CSSC[C@@H](C(N)=O)NC(=O)[C@H](C)NC(=O)[C@H](CC(C)C)NC(=O)[C@H](Cc2ccc(O)cc2)NC(=O)[C@H](Cc2ccc(NC(=N)N)cc2)NC(=O)[C@H](CO)NC(=O)[C@H](Cc2ccc(O)cc2)NC(=O)[C@H](C)NC(=O)[C@@H]2CCCN2C1=O [Mupain-1-12 D9A, CPAYS[4-guanidino-phenyl-alanine]YLAC] (Ac-CPAYS[Phe(4-guanidino)]YLAC-NH2; disulfide 1-10; N-terminus assumed) measured for huPA-H99Y V41A (Homo sapiens, UniProt P00749, H272Y/V208A).
Response line: 6.32
